Target: Prostaglandin G/H synthase 2 (Homo sapiens) (UniProt P35354)
Settings: Blood; at 10 µM
Description: Evaluation for percent inhibition of prostaglandin G/H synthase 2 in human whole blood (HWB) at a concentration of 10 um
Use 90% as the dividing line for inhibition, with the line itself on the y side and lower values as n.

Use the examples below as a reference point.
> print(dat)
                         compound.structure  answer.label
1  CC(C)CC(CC(C)C)n1nc(CO[N+](=O)[O-])cc1-c1ccc(S(C)(=O)=O)cc1             n
2  CCOC(=O)N1CCC(n2nc(CO[N+](=O)[O-])cc2-c2ccc(S(C)(=O)=O)cc2)CC1             n
3  CS(=O)(=O)c1ccc(-c2cc(C(=O)CCCO)nn2-c2ccc(Cl)cc2)cc1             n
4  CS(=O)(=O)c1ccc(-c2cc(C(=O)CCCO[N+](=O)[O-])nn2-c2ccc(Br)cc2)cc1             y
5  CS(=O)(=O)c1ccc(-c2cc(/C=C/CO[N+](=O)[O-])nn2C2CCCCC2)cc1             n

input: Item COc1ccc(-n2nc(C(=O)CCCO)cc2-c2ccc(S(C)(=O)=O)cc2)cc1 with inhibition of 90% or above?
output: n

input: Here is the next molecule: CS(=O)(=O)c1ccc(-c2cc(C(=O)CCCCCO)nn2C2CCCCC2)cc1
output: n

input: Here is the next molecule: CS(=O)(=O)c1ccc(-c2cc(C(=O)CCCO[N+](=O)[O-])nn2-c2ccccc2)cc1
output: y

---

Biological target: Prostaglandin G/H synthase 2 (Homo sapiens) (UniProt P35354)
Sequence (whole entry): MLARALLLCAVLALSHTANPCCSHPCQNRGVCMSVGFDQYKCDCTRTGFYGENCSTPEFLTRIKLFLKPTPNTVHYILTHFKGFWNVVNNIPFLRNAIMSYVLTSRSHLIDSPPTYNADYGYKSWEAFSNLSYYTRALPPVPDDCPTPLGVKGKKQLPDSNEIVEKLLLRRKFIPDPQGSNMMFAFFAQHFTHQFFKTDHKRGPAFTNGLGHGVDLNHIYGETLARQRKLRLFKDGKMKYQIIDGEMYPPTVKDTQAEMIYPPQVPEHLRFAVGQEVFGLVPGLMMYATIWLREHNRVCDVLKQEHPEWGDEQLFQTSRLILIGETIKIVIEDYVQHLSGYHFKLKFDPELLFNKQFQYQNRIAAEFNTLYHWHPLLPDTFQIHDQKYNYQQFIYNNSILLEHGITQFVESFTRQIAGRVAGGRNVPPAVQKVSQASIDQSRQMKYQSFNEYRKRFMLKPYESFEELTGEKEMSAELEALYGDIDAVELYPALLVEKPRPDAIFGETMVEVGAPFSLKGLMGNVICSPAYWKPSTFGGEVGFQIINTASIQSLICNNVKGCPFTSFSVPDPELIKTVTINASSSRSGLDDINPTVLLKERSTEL
Settings: Blood; at 1 µM
Description: Evaluation for percent inhibition of prostaglandin G/H synthase 2 in human whole blood (HWB) at a concentration of 1 um
Property Measured: inhibition (%)
Please state the figure in %; there is no need to write the unit.

> print(dat)
                         compound.structure  observed
1  CS(=O)(=O)c1ccc(-c2cc(C(=O)CCCO[N+](=O)[O-])nn2-c2ccccc2)cc1        35
2  CS(=O)(=O)c1ccc(-c2cc(C(=O)CCCO)nn2-c2ccc(C(F)(F)F)cc2)cc1         0
3  CS(=O)(=O)c1ccc(-c2cc(/C=C/CO[N+](=O)[O-])nn2CC2CCCCC2)cc1        35
4  COc1ccc(-n2nc(C(=O)CCCO[N+](=O)[O-])cc2-c2ccc(S(C)(=O)=O)cc2)cc1        95

Now for a further molecule.
input: Dear colleague, I am looking for the recorded inhibition of the following molecule: CS(=O)(=O)c1ccc(-c2cc(C(=O)CCCO)nn2-c2ccc(C#N)cc2)cc1
output: 0

---

List of inhibition values.
Target: Prostaglandin G/H synthase 2 (Homo sapiens) (UniProt P35354)
Sequence (whole entry): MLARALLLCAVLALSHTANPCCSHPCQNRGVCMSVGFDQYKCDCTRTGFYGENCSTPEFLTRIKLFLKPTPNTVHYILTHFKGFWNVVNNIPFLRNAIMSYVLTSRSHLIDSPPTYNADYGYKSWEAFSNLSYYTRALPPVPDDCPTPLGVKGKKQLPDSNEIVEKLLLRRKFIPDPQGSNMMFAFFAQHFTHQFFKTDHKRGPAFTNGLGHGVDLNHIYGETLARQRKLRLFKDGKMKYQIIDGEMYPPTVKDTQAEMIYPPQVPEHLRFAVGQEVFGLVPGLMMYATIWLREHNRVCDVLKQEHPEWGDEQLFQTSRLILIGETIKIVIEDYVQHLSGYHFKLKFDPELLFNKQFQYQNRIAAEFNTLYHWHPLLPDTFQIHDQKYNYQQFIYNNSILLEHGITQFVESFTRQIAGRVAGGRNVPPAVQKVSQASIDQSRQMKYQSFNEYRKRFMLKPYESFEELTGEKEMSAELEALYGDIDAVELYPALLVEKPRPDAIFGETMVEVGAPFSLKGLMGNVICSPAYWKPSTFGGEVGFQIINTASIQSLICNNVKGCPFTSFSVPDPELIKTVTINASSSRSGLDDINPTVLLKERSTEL
Details: Blood; at 10 µM
Please state the figure in %; there is no need to write the unit.

input: Dear colleague, I am looking for the recorded inhibition of the following compound: CS(=O)(=O)c1ccc(-c2cc(CO[N+](=O)[O-])nn2C2CCCCCCC2)cc1
output: 90

input: Here is the next compound: CS(=O)(=O)c1ccc(-c2cc(CCCO)nn2C2CCCCC2)cc1
output: 90

input: Here is the next compound: CS(=O)(=O)c1ccc(-c2cc(CO[N+](=O)[O-])nn2C2CCCCCC2)cc1
output: 90

Data origin: ChEMBL document CHEMBL1149153
